Compiled literature IC50, tested on Epidermal growth factor receptor (Homo sapiens).

Short answer for C=CC(=O)Nc1cccc(Oc2nc(Nc3cc(C)[nH]n3)cc(N3CCN(C)CC3)n2)c1 : IC50 was > 10 µM

For record CCOC(=O)c1c(C)[nH]c(/C=C2\C(=O)Nc3ccccc32)c1C the listed IC50 is > 100 µM

The recorded IC50 for COc1cc2ncnc(Nc3ccc(NC(=O)Nc4ccccc4)cc3)c2cc1OC is > 10 µM

Notebook: CC/C=C\C(=O)Nc1cc(Nc2nc3c(c(-c4cn(C)c5ccc(F)cc45)n2)CSCC3)c(OC)cc1N(C)CCN(C)C , IC50 read as > 2 µM
